# tgt: TRAP1 enzyme (Homo sapiens, UniProt Q12931)
# Construct: 150 nM Trap1 enzyme was incubated with various concentrations of the test compound
# Sequence (Q12931 60-704): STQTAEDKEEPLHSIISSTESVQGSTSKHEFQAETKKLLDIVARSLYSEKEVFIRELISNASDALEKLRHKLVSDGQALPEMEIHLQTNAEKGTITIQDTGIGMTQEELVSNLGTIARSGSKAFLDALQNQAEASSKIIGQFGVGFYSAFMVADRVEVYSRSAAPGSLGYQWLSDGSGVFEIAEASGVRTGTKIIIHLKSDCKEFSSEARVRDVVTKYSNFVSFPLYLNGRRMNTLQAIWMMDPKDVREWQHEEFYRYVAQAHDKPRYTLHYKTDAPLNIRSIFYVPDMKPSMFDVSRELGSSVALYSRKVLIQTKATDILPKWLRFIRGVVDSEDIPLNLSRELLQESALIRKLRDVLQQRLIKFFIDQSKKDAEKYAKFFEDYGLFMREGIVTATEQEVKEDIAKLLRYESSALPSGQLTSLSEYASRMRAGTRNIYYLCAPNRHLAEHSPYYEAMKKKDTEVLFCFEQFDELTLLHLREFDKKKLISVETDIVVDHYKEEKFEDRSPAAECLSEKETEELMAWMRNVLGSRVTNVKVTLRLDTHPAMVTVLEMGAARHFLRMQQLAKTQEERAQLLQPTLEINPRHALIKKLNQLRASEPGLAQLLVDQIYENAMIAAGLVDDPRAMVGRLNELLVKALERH
# experimental-protocol: ADP Glo assay of TRAP1 ATPase activity
# Format: biochemical
# particulars: maximal percent activation; read-out: ADP GLO DRC: Mean Emax
# Method: Potency of test compounds to modulate the ATPase activity of TRAP1 enzyme was evaluated using ADP Glo assay. The assay is based on quantification of the ADP generated from ATP in the ATPase reaction. […] Second, the Kinase Detection Reagent is added to simultaneously convert ADP to ATP and allow the newly synthesized ATP to be measured using a luciferase/luciferin reaction. […]
measured-parameter: Emax

>>> df
                                        smi  measured_parameter  test_result
0  COc1ncc(NC(=O)c2csc(Br)n2)cc1S(=O)(=O)Nc1c(C)cccc1C                Emax  119 to 159%
1  CNc1ncc(C(F)(F)F)cc1NS(=O)(=O)c1cc(NC(=O)c2ncc(-c3ccccc3)o2)cnc1OC                Emax  160 to 199%
2  COc1ncc(NC(=O)c2ncc(-c3ccccc3)o2)cc1S(=O)(=O)Nc1cccc(C(F)(F)F)n1                Emax  200 to 300%
3  COc1ncc(NC(=O)c2coc(-c3ccccc3)n2)cc1S(=O)(=O)Nc1c(C)cccc1F                Emax  119 to 159%
4  COc1ncc(NC(=O)c2csc3c2CN(C(=O)OC(C)(C)C)CC3)cc1S(=O)(=O)Nc1c(C)cccc1C                Emax  200 to 300%
5  Cc1cnc(NC(=O)c2ncc(-c3ccccc3)o2)cc1S(=O)(=O)Nc1ccc(Cl)cc1                Emax  160 to 199%

Ask: Entry under review: COc1ncc(NC(=O)c2ncc(-c3ccccc3)o2)cc1S(=O)(=O)Nc1c(C)cccc1C . Reported Emax?
Result: 160 to 199%
